Molecular target: B1R receptor of the rat (rB1R) (Rattus norvegicus)
Construct: expressed in transfected cells; host or cells: CHO K1 cells
Sequence (P97583 whole entry): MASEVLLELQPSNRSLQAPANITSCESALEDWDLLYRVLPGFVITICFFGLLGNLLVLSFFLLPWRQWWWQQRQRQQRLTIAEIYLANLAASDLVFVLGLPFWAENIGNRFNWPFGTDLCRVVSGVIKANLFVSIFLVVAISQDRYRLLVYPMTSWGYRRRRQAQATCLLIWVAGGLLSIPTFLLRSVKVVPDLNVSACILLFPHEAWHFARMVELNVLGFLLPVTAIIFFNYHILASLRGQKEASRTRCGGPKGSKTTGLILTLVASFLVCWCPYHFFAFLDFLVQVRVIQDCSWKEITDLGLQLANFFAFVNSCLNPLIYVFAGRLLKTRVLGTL
Experiment: Functional investigation on the bradykinin 1 receptor (B1R), FLIPR Ca2+ assay, rB1R cells
Format: cell-based
Settings: CHO-K1, 10 μM test substance; CHO K1 cells with rat B1R; agonist Des-Arg9 bradykinin; % of maximum achievable inhibition; read-out: B1R antagonism, rat [10 μM] % inhibition
readout name: inhibition at 10 µM (%)

The cases that follow already have their inhibition at 10 µM on record.
>>> assay_value("CN1CCC(CN2CCN(C(=O)CCn3ccc4ccc(N5Cc6cccc(Cl)c6C5=O)cc43)CC2)CC1")
89
>>> assay_value("COc1cc(C)c(S(=O)(=O)Nc2cccc3ccn(CC(=O)N4CCN(C(=O)c5cccnc5)CC4)c23)c(C)c1")
50
>>> assay_value("CN(CCCN1CCN(c2ccncc2)CC1)C(=O)Cn1ccc2ccc(N3Cc4cccc(Cl)c4C3=O)cc21")
52

A. COc1cc(C)c(S(=O)(=O)Nc2cccc3ccn(CCC(=O)N4CCC(O)(c5ccccn5)CC4)c23)c(C)c1
B. Cc1ccc2n1C(=O)N(c1ccc3ccn(CC(=O)N4CCC5(CC4)CCN(c4ccncc4)CC5)c3c1)C2
Sorting by inhibition at 10 µM in descending order, would A or B appear first? Identify your selection by its label.
B
(B: 99%, A: 59%)

I. O=C(Cn1ccc2ccc(N3CCn4ccc(Cl)c4C3=O)cc21)N1CCC2(CC1)CCN(c1ccncc1)CC2
II. COc1cc(C)c(S(=O)(=O)Nc2cccc3ccn(CC(=O)N(C)CCCN4CCC(c5ccccc5)(N(C)C)CC4)c23)c(C)c1
Sorting by inhibition at 10 µM in descending order, would I or II appear first? Identify your selection by its label.
II
(II: 86%, I: 46%)

I. COc1cc(C)c(S(=O)(=O)Nc2cccc3ccn(CCC(=O)N(C)CCCN4CCC(c5cccs5)(N(C)C)CC4)c23)c(C)c1
II. Cc1cc(S(=O)(=O)Nc2ccc3ccn(CCC(=O)N4CCC5(CC4)CCN(c4ccncc4)CC5)c3c2)c(C)cc1Cl
Sorting by inhibition at 10 µM in descending order, would I or II appear first? Identify your selection by its label.
I
(I: 94%, II: 53%)

a. O=C(CCn1ccc2cccc(N3Cc4cccc(Cl)c4C3=O)c21)N1CCC2(CC1)CCN(c1ccncc1)CC2
b. O=C(Cn1ccc2ccc(N3Cc4cccc(Cl)c4C3=O)cc21)N1CCC2(CCC(N3CCC3)CC2)CC1
Sorting by inhibition at 10 µM in descending order, would a or b appear first? Identify your selection by its label.
a
